# experimental-target: human CB1 receptors (Homo sapiens)
# Construct: expressed in transfected cells; host or cells: CHO cells
# measurement-protocol: functional cAMP assay, human CB1
# Format: cell-based
# applied-conditions: CHO cells expressing human CB1, cAMP; read-out: human CB1 EC50
// values below are reported pEC50
In simple prose, pEC50 is minus the logarithm base ten of a concentration in moles per litre.

chemical-structure	obs-value
Cc1nc(Cn2nnc3c(N4CCC(F)(F)C4)nc(C(C)(C)C)nc32)no1	6.25
CC(C)(C)c1nc(N2CC[C@](C)(O)C2)c2nnn(Cc3ncccc3Cl)c2n1	6.05
CC(C)(C)c1nc(N2CC(F)(F)C2)c2nnn(Cc3ccccc3Cl)c2n1	5.96
CC(C)(C)c1nc(N2CCCOCC2)c2nnn(Cc3ccccc3Cl)c2n1	5.82
CC(C)(C)c1nc(N2CCC(F)(F)C2)c2nnn(Cc3cc(F)ccc3Cl)c2n1	6.43
CC(C)(C)c1nc(N2CCC(F)(F)C2)c2nnn(Cc3c[nH]nc3C(F)(F)F)c2n1	5.85
CC(C)(C)c1nc(N2CCC[C@@H]2C#N)c2nnn(Cc3ccccc3Cl)c2n1	6.81

Param readout = pEC50; param system = human CB1 receptors (Homo sapiens); param query = CC1(O)CN(c2nc(C(C)(C)C)nc3c2nnn3Cc2ccccc2Cl)C1 ; response: value 5.91

====

# experimental-target: human CB1 receptors (Homo sapiens, UniProt P21554)
# Construct: expressed in transfected cells; host or cells: CHO cells
# Sequence (P21554 whole entry): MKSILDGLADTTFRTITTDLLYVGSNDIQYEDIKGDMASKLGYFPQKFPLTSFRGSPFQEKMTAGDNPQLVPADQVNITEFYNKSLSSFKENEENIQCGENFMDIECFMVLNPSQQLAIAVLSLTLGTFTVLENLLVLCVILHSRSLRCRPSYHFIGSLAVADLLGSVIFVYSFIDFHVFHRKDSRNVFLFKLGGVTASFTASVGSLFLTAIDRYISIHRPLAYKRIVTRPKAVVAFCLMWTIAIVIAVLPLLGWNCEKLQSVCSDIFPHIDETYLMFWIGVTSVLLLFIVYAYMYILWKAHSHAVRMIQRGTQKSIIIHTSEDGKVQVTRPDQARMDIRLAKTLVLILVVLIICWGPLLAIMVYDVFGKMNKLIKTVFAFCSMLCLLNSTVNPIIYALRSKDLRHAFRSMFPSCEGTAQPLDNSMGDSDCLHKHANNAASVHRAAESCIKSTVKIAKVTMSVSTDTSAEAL
# measurement-protocol: functional cAMP assay, human CB1
# Type: cell-based
# applied-conditions: CHO cells expressing human CB1, cAMP; read-out: human CB1 EC50
experimental-readout: EC50

compound	experimental-target	EC50
CC(C)(C)c1nc(N2CCC(F)(F)C2)c2nnn(CCc3ccccc3)c2n1 [Example 84]	human CB1 receptors (Homo sapiens, UniProt P21554)	0.451 µM
CCNc1nc(C(C)(C)C)nc2c1nnn2Cc1ccccc1Cl [Example 7]	human CB1 receptors (Homo sapiens, UniProt P21554)	> 10 µM
Cc1nc(Cn2nnc3c(N4CC[C@H](O)C4)nc(C(C)(C)C)nc32)no1 [Example 149]	human CB1 receptors (Homo sapiens, UniProt P21554)	> 10 µM
Cc1nnc(Cn2nnc3c(N4CC(F)(F)C(F)(F)C4)nc(C(C)(C)C)nc32)o1 [Example 175]	human CB1 receptors (Homo sapiens, UniProt P21554)	> 10 µM
COc1ccccc1Cn1nnc2c(N3CCC(F)(F)C3)nc(C(C)(C)C)nc21 [Example 81]	human CB1 receptors (Homo sapiens, UniProt P21554)	0.0689 µM
Cc1noc(Cn2nnc3c(N4CCC(F)(F)C4)nc(C(C)(C)C)nc32)n1 [Example 102]	human CB1 receptors (Homo sapiens, UniProt P21554)	> 10 µM

Endpoint output: EC50 of CC(C)(C)c1nc(N2C[C@@H](O)C[C@@H]2CO)c2nnn(Cc3ccccc3Cl)c2n1 [Example 93] . Value? > 10 µM

Endpoint output: EC50 of CC(C)(C)c1nc(N2CCC(O)C2)c2nnn(Cc3ccccc3Cl)c2n1 (stereo not drawn) [Example 204] . Value? > 10 µM

Endpoint output: EC50 of CC(Oc1nc(C(C)(C)C)nc2c1nnn2Cc1ccccc1Cl)C1CC1 (stereo not drawn) [Example 211] . Value? > 10 µM

====

# experimental-target: human CB2 receptors (Homo sapiens, UniProt P34972)
# Construct: expressed in transfected cells; host or cells: CHO cells
# Sequence (P34972 whole entry): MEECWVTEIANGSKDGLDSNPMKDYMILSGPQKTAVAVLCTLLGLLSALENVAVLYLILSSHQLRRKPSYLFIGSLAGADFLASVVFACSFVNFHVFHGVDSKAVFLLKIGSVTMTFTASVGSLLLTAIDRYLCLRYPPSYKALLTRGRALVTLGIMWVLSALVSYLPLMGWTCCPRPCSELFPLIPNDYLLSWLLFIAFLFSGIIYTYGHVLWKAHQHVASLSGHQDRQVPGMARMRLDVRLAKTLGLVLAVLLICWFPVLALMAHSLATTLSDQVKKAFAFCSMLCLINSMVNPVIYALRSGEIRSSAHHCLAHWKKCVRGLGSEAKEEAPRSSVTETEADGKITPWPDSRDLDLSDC
# measurement-protocol: functional cAMP assay, human CB2
# Format: cell-based
# applied-conditions: CHO cells expressing human CB2, cAMP; read-out: human CB2 EC50
experimental-readout: EC50 (nM)
Number only, in nM; omit the unit.

Illustrative cases are given below, each with its answer.
compound	experimental-target	obs-value
CC(C)(C)c1nc(N2CC[C@H](O)C2)c2nnn(Cc3nc(Cl)ccc3Cl)c2n1	human CB2 receptors (Homo sapiens, UniProt P34972)	0.3
CC(C)(C)c1nc(N2CCCS2(=O)=O)c2nnn(Cc3ccccc3Cl)c2n1	human CB2 receptors (Homo sapiens, UniProt P34972)	20.2
CC(C)(C)c1nc(N2C[C@@H](O)C(F)(F)C2)c2nnn(Cc3ccccc3Cl)c2n1	human CB2 receptors (Homo sapiens, UniProt P34972)	1.5
Cc1nonc1Cn1nnc2c(N3CC[C@H](O)C3)nc(C(C)(C)C)nc21	human CB2 receptors (Homo sapiens, UniProt P34972)	0.2

Endpoint output: EC50 of C[C@@H](c1ccccc1Cl)n1nnc2c(N3CCC(F)(F)C3)nc(C(C)(C)C)nc21 . Value? 1

Endpoint output: EC50 of CC(C)(C)c1nc(N2CC(O)C2)c2nnn(Cc3ccccc3Cl)c2n1 . Value? 12.3

Endpoint output: EC50 of Cc1nonc1Cn1nnc2c(N3CCC(F)(F)C3)nc(C(C)(C)C)nc21 . Value? 0.1

Endpoint output: EC50 of Cc1cc(Cn2nnc3c(N4CC[C@H](O)C4)nc(C(C)(C)C)nc32)n(C)n1 . Value? 3

Endpoint output: EC50 of CC(C)(C)c1nc(N2CCC(F)(F)C2)c2nnn(CCc3ccncc3)c2n1 . Value? 1.3

Endpoint output: EC50 of CC(C)(C)c1nc(N2CCC2)c2nnn(Cc3ccccc3Cl)c2n1 . Value? 3.2

====

// values below are reported pEC50
# experimental-target: human CB1 receptors (Homo sapiens)
# Construct: expressed in transfected cells; host or cells: CHO cells
# measurement-protocol: functional cAMP assay, human CB1
# Format: cell-based
# applied-conditions: CHO cells expressing human CB1, cAMP; read-out: human CB1 EC50
pEC50: −log10 of the molar value.

Illustrative cases are given below, each with its answer.
molecule	pEC50
CC(C)(C)c1nc(N2CC[C@H](O)C2)c2nnn(Cc3nc(Cl)ccc3Cl)c2n1	< 5.00
CC(C)(C)c1nc(N2CCC(F)(F)C2)c2nnn(Cc3ccccc3Cl)c2n1	6.78
Cc1noc(Cn2nnc3c(N4CC[C@@](C)(O)C4)nc(C(C)(C)C)nc32)n1	< 5.00
CC(C)(C)c1nc(N2CCCS2(=O)=O)c2nnn(Cc3ccccc3Cl)c2n1	< 5.00

Endpoint output: pEC50 of CC(C)(C)c1nc(N2CC[C@H](F)C2)c2nnn(Cc3ccccc3Cl)c2n1 . Value? 6.36

Endpoint output: pEC50 of Cc1nnc(Cn2nnc3c(N4CC[C@H](O)C4)nc(C(C)(C)C)nc32)o1 . Value? < 5.00

Endpoint output: pEC50 of CC(Oc1nc(C(C)(C)C)nc2c1nnn2Cc1ccccc1Cl)C(F)(F)F (centres unmarked) . Value? < 5.00

Endpoint output: pEC50 of CC(C)(C)c1nc(N2CCC(F)(F)C2)c2nnn(Cc3cc(Cl)cnc3Cl)c2n1 . Value? 6.30

Endpoint output: pEC50 of COc1ccc(Cn2nnc3c(N4CC[C@H](O)[C@@H]4CO)nc(C(C)(C)C)nc32)cc1 . Value? < 5.00

Endpoint output: pEC50 of CC(C)(C)c1nc(N2CC[C@@](C)(O)C2)c2nnn(Cc3nnnn3C3CC3)c2n1 . Value? < 5.00

Endpoint output: pEC50 of CC1CCCN1c1nc(C(C)(C)C)nc2c1nnn2Cc1ccccc1Cl (centres unmarked) . Value? < 5.00

Endpoint output: pEC50 of CC(C)(C)c1nc(N2CCC(F)(F)C2)c2nnn(Cc3cccnc3)c2n1 . Value? 7.25

Endpoint output: pEC50 of CC(C)(C)COc1nc(C(C)(C)C)nc2c1nnn2Cc1ccccc1Cl . Value? < 5.00

Endpoint output: pEC50 of CC(C)(C)c1nc(N2CCC(F)(F)C2)c2nnn(Cc3ccccc3C(F)(F)F)c2n1 . Value? 7.16

====

# experimental-target: human CB2 receptors (Homo sapiens, UniProt P34972)
# Construct: expressed in transfected cells; host or cells: CHO cells
# measurement-protocol: functional cAMP assay, human CB2
# Type: cell-based
# applied-conditions: CHO cells expressing human CB2, cAMP; read-out: human CB2 EC50
experimental-readout: log10 EC50 (log10 of the value in nM)
Please keep in mind that the values are log10 of EC50 expressed in nM.

Illustrative cases are given below, each with its answer.
compound	experimental-target	experimental-readout	obs-value
CC(C)(C)c1nc(N2CC[C@@](C)(O)C2)c2nnn(Cc3ncccc3Cl)c2n1	human CB2 receptors (Homo sapiens, UniProt P34972)	log10 EC50	0.81
CC(=O)N(C)C1CCN(c2nc(C(C)(C)C)nc3c2nnn3Cc2ccccc2Cl)C1 (stereo not shown)	human CB2 receptors (Homo sapiens, UniProt P34972)	log10 EC50	2.45
CC(C)(C)c1nc(N2CCC(F)(F)C2)c2nnn(Cc3ccccc3C(F)(F)F)c2n1	human CB2 receptors (Homo sapiens, UniProt P34972)	log10 EC50	-0.52
C[C@@H](Oc1nc(C(C)(C)C)nc2c1nnn2Cc1ccccc1Cl)C(F)(F)F	human CB2 receptors (Homo sapiens, UniProt P34972)	log10 EC50	1.02
CC(C)(C)c1nc(N2CCOCC2)c2nnn(Cc3ccc(F)cc3Cl)c2n1	human CB2 receptors (Homo sapiens, UniProt P34972)	log10 EC50	0.36

Now consider the entry below.
Endpoint output: log10 EC50 of CC(C)(C)c1nc(N2CC[C@H](O)C2)c2nnn(Cc3cccnc3Nc3ccc([N+](=O)[O-])c4nonc34)c2n1 . Value? 2.40
